molecular target: HLA-A*0201 (HLA-A2.1) (Homo sapiens, UniProt P04439, D140Y/D185E/D98H/E176V/E277Q/G131W/G231S/I119V/I121R/I166T/I218V/L300P/L318F/N151K/N90K/P208A/P217A/Q86G/Q94H/R138H/R169H/T345S); test: biochemical
# key: entry, value: IC50
Quick reminder: number only, in nM, skip the unit.

[[record]]
compound = "CSCC[C@H](NC(=O)[C@H](C)N)C(=O)N[C@@H](CS)C(=O)N[C@@H](CCCNC(=N)N)C(=O)N[C@@H](Cc1c[nH]c2ccccc12)C(=O)NCC(=O)N[C@@H](CC(C)C)C(=O)N[C@@H](CC(C)C)C(=O)N[C@H](C(=O)O)C(C)C [Peptide 1334.07]"
numeric_value = 51


Problem: Data request, read-out IC50, for CC[C@H](C)[C@H](NC(=O)CN)C(=O)N[C@@H](CCSC)C(=O)N[C@H](C(=O)NCC(=O)N[C@H](C(=O)N[C@@H](CC(C)C)C(=O)N[C@H](C(=O)NCC(=O)N[C@H](C(=O)N[C@H](C(=O)O)C(C)C)C(C)C)C(C)C)C(C)C)[C@@H](C)CC [Peptide 9013.0344]
Solution: 563

---

target: DRB1*1302 (Homo sapiens, UniProt P01903+P01911, A100E/A169T/K41T/L162R/M171V/P40S/Q125H/Q178H/Q39Y/Q99D/R42S/S66N/T262R/V115G/W38E/Y61H); assay: biochemical; type: binding
Sequence (P01903 26-254 limits assumed, other chains not shown): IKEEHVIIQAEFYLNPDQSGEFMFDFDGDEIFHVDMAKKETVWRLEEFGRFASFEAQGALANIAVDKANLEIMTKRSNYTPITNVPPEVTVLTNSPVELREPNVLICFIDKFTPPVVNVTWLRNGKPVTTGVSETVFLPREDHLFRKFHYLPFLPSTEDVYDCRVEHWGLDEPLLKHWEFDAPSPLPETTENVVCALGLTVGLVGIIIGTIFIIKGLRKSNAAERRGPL
readout: IC50
Include the unit after the number when you answer.

[[record]]
compound = "CC[C@H](C)[C@H](NC(=O)CNC(=O)[C@@H](NC(=O)[C@H](CCCCN)NC(=O)[C@H](Cc1ccc(O)cc1)NC(=O)[C@H](Cc1c[nH]c2ccccc12)NC(=O)[C@H](Cc1ccc(O)cc1)NC(=O)[C@@H](N)CC(C)C)[C@@H](C)O)C(=O)N[C@@H](CO)C(=O)N[C@@H](CC(N)=O)C(=O)N[C@H](C(=O)N[C@@H](CO)C(=O)N[C@@H](CCC(=O)O)C(=O)N[C@H](C(=O)N[C@@H](Cc1ccc(O)cc1)C(=O)O)C(C)C)[C@@H](C)CC [Peptide 89.0009]"
result = "319 nM"


# context switch: different compound, same IC50
Problem: Data request, read-out IC50, for CC(C)C[C@H](NC(=O)[C@H](CCC(N)=O)NC(=O)[C@H](CCCCN)NC(=O)[C@@H](NC(=O)[C@H](CC(C)C)NC(=O)[C@H](CCC(N)=O)NC(=O)[C@@H](NC(=O)[C@H](C)NC(=O)[C@H](CO)NC(=O)[C@@H](NC(=O)[C@@H](NC(=O)[C@H](CC(=O)O)NC(=O)[C@@H](N)CC(=O)O)[C@@H](C)O)C(C)C)[C@@H](C)O)C(C)C)C(=O)N[C@@H](CCC(N)=O)C(=O)N[C@@H](Cc1c[nH]cn1)C(=O)O [Peptide 89.0162]
Solution: 73 nM

---

target: DRB1*0405 (Homo sapiens, UniProt P01903+P01911, A100R/A169T/D86S/F76Y/I96L/K127E/L162R/M171V/N62H/P40V/Q125Y/R42H/S133A/S149N/S66Y/V115G/V209L/W38E); assay: biochemical; format: binding
No end group written: not given here.
# key: entry, value: pIC50
Formally, pIC50 is defined as -log10 of the concentration c, with c in mol/L.

[[record]]
residues = "TPEWIEQQTVLQHSF [Peptide 89.0104]"
numeric_value = 5.54


Problem: Data request, read-out pIC50, for FLDVVTIPNSVQISV [Peptide 1601.40]
Solution: 5.75

Problem: Data request, read-out pIC50, for GCWRQTSREPRESTV [Peptide 1543.46]
Solution: 5.64

Problem: Data request, read-out pIC50, for KERHVNANKRFHNIM [Peptide 1543.59]
Solution: 7.59

Problem: Data request, read-out pIC50, for FKKFLKGIPKKSCML [Peptide 89.0073]
Solution: 4.76

---

target: B*3502 (Homo sapiens, UniProt P01889, A329T/A93T/A95T/C349S/D138N/D201E/D98Y/E176V/E187L/E204Q/E69T/I218V/K202T/L119I/L133F/Q94N/R155S/R180L/S121R/S35A/S48A/T118I/V127L/V306I/V36M/Y91F); assay: biochemical; format: binding; conditions: read-out: BINDING CAPACITY (IC50 nM) B*3502
readout: IC50

Problem: Data request, read-out IC50, for `MPNDPNRNV`
Solution: > 30000 nM

---

target: A*0206 (Homo sapiens, UniProt P04439, D140Y/D185E/D98H/E176V/E277Q/F33Y/G131W/G231S/I119V/I121R/I166T/I218V/L300P/L318F/N151K/N90K/P208A/P217A/Q86G/Q94H/R138H/R169H/T345S); experiment: biochemical; format: binding
No end group written: not given here.
readout: IC50

[[record]]
residues = "TLYAHIQCL [Peptide 1578.26]"
readout = "IC50"
result = "420 nM"


Problem: Data request, read-out IC50, for GLSAGATVGV [Peptide 9013.0250]
Solution: 1100 nM

---

# key: entry, value: IC50
biological target: DRB1*1201 (Homo sapiens, UniProt P01903+P01911, A100R/A169T/D57E/D86V/F55L/H45Y/K41T/L162R/M171V/P40S/Q125H/Q178H/Q39Y/Q99D/R42G/S66L/T262R/V114A/V67L/W38E/Y59H/Y61H/Y89S); test: biochemical

Previously resolved entries follow.
[[record]]
compound = "CC(C)C[C@H](NC(=O)CNC(=O)[C@H](CC(N)=O)NC(=O)[C@H](Cc1ccc(O)cc1)NC(=O)[C@@H](NC(=O)[C@H](CC(=O)O)NC(=O)[C@H](CC(C)C)NC(=O)[C@H](C)N)C(C)C)C(=O)N[C@@H](CC(C)C)C(=O)N1CCC[C@H]1C(=O)N1CCC[C@H]1C(=O)N[C@@H](Cc1ccc(O)cc1)C(=O)N[C@@H](C)C(=O)N[C@@H](CO)C(=O)N[C@@H](CS)C(=O)O [Peptide 68.0052]"
readout = "IC50"
result = "7570 nM"

[[record]]
compound = "CSCC[C@H](NC(=O)[C@H](CC(=O)O)NC(=O)[C@H](Cc1ccc(O)cc1)NC(=O)[C@H](CC(C)C)NC(=O)[C@@H]1CCCN1C(=O)[C@H](Cc1c[nH]cn1)NC(=O)[C@@H]1CCCN1)C(=O)N[C@@H](CO)C(=O)N[C@@H](CC(C)C)C(=O)N[C@@H](CC(C)C)C(=O)N[C@@H](CCCCN)C(=O)N[C@@H](CC(N)=O)C(=O)N[C@@H](CCCNC(=N)N)C(=O)N[C@@H](Cc1ccccc1)C(=O)N[C@@H](CC(C)C)C(=O)O [Peptide 68.0071]"
readout = "IC50"
result = "487 nM"


Problem: Data request, read-out IC50, for CC(C)C[C@H](NC(=O)[C@H](Cc1ccccc1)NC(=O)CNC(=O)[C@H](CC(C)C)NC(=O)[C@H](CO)NC(=O)[C@H](CC(C)C)NC(=O)[C@H](CO)NC(=O)[C@H](C)NC(=O)[C@H](C)NC(=O)[C@H](CCCNC(=N)N)NC(=O)[C@H](C)NC(=O)[C@H](CC(C)C)NC(=O)[C@H](CC(C)C)NC(=O)[C@H](CC(C)C)NC(=O)[C@@H]1CCCN1)C(=O)O [Peptide 68.0021]
Solution: 1510 nM

---

target: HLA-A*0201 (HLA-A2.1) (Homo sapiens, UniProt P04439, D140Y/D185E/D98H/E176V/E277Q/G131W/G231S/I119V/I121R/I166T/I218V/L300P/L318F/N151K/N90K/P208A/P217A/Q86G/Q94H/R138H/R169H/T345S); assay: biochemical; type: binding
No end group written: not given here.
readout: pIC50
Formally, pIC50 is defined as -log10 of the concentration c, with c in mol/L.

[[record]]
residues = "AIFGVNPTI [Peptide 86.0178]"
readout = "pIC50"
numeric_value = 5.74

[[record]]
residues = "FLQGCIISYA [Peptide 1578.18]"
readout = "pIC50"
numeric_value = 7.03

[[record]]
residues = "FQFQNPFPL [Peptide 1578.40]"
readout = "pIC50"
numeric_value = 8.08

[[record]]
residues = "QQIEFITFL [Peptide 1578.10]"
readout = "pIC50"
numeric_value = 7.38

[[record]]
residues = "NLAEGKEVLLL [Peptide 9013.0271]"
readout = "pIC50"
numeric_value = 5.12


Problem: Data request, read-out pIC50, for ALYWYRTGL [Peptide 1578.30]
Solution: 5.30
